Test system: HIV-1 strain IIIB (lymphocytotropic strain)
Experiment: Single-round infection assay, cell-free X4 virus (lymphocytotropic strain)
Format: cell-based
Details: Human immunodeficiency virus 1, IIIB, read-out: (X4) EC50, Table 2, single-round infection assay
API: label(entry) gives label 1 if the entry's EC50 is strictly smaller than 3 µM; on equality or larger values it gives label 0.

Worked cases, answers included:
Compound: Cc1cn([C@H]2C[C@H](N=[N+]=[N-])[C@@H](COC(=O)CCCCCCCCCCCBr)O2)c(=O)[nH]c1=O
Tested on: HIV-1 strain IIIB (lymphocytotropic strain)
Qualitative label: label 0
--
Compound: CCCCCCCCCCCCCC(=O)OC[C@H]1O[C@@H](n2cc(C)c(=O)[nH]c2=O)C[C@@H]1N=[N+]=[N-]
Tested on: HIV-1 strain IIIB (lymphocytotropic strain)
Qualitative label: label 0
--
Compound: CCCCCSCCCCCCCC(=O)OC[C@H]1O[C@@H](n2cc(C)c(=O)[nH]c2=O)C[C@@H]1F
Tested on: HIV-1 strain IIIB (lymphocytotropic strain)
Qualitative label: label 0
--
Compound: CCCCCCCCCCCCC(OC)C(=O)OC[C@H]1O[C@@H](n2cc(C)c(=O)[nH]c2=O)C[C@@H]1F (mixture of isomers)
Tested on: HIV-1 strain IIIB (lymphocytotropic strain)
Qualitative label: label 1
--
Compound: Cc1cn([C@H]2C[C@H](F)[C@@H](COC(=O)CCCCCCCCCCCN=[N+]=[N-])O2)c(=O)[nH]c1=O
Tested on: HIV-1 strain IIIB (lymphocytotropic strain)
Qualitative label: label 1

Q: Dear reviewer, please state whether CCCCCCCCCCCCC(OC)C(=O)OC[C@H]1O[C@@H](n2cc(C)c(=O)[nH]c2=O)C[C@@H]1N=[N+]=[N-] (mixture of isomers) has EC50 strictly beneath 3 µM.
Result: label 0

----------
Assay: Cytotoxicity assay (MTS)
Type: cell-based
Settings: human, HeLa cells (ATCC CCL-2.1), Table 2; MTS; 50% effective concentration
Catalogue of EC50 values

Compound: CCCCCSCCCCCCCC(=O)OC[C@H]1O[C@@H](n2cc(C)c(=O)[nH]c2=O)C[C@@H]1F
EC50: > 64 µM
--
Compound: CCCCCCCCCCCCCCC(=O)OC[C@H]1O[C@@H](n2cc(C)c(=O)[nH]c2=O)C[C@@H]1N=[N+]=[N-]
EC50: > 611 µM
--
Compound: CCCCCSCCCCCCCC(=O)OC[C@H]1O[C@@H](n2cc(C)c(=O)[nH]c2=O)C[C@@H]1N=[N+]=[N-]
EC50: > 202 µM
--
Compound: Cc1cn(C2CC(F)C(COC(=O)CCCCCCCCCCCN)O2)c(=O)[nH]c1=O (stereo not shown)
EC50: > 226 µM
--
Compound: CCSCCCCCCCCCCCC(=O)OC[C@H]1O[C@@H](n2cc(C)c(=O)[nH]c2=O)C[C@@H]1N=[N+]=[N-]
EC50: > 101 µM
--
Compound: CCSCCCCCCCCCCCC(=O)OC[C@H]1O[C@@H](n2cc(C)c(=O)[nH]c2=O)C[C@@H]1F
EC50: > 2000 µM

Please find the next compound below.
Q: // EC50 lookup, key: "CCCCCCCCCCCCCC(=O)OC[C@H]1O[C@@H](n2cc(C)c(=O)[nH]c2=O)C[C@@H]1F"
Result: 606 µM

----------
Tested on: HIV-1 strain IIIB (lymphocytotropic strain)
Assay: Single-round infection assay, cell-free X4 virus (lymphocytotropic strain)
Format: cell-based
Conditions: Human immunodeficiency virus 1, IIIB, read-out: (X4) EC50, Table 2, single-round infection assay
Parameter measured: EC50
Answer with the number, then the unit.

Molecule: CCCCCCCCCCCCCCOCC1OC(n2cc(C)c(=O)[nH]c2=O)CC1F (stereo not shown) [Compound 3]
Tested on: HIV-1 strain IIIB (lymphocytotropic strain)
Parameter measured: EC50
Val: 180 µM

Q: Which measured EC50 belongs to Cc1cn(C2CC(F)C(COC(=O)CCCCCCCCCCCN)O2)c(=O)[nH]c1=O (stereo not shown) [Compound 22] , tested on HIV-1 strain IIIB (lymphocytotropic strain)?
Result: 3.4 µM

Q: Which EC50 is reported with HIV-1 strain IIIB (lymphocytotropic strain) for this entry: CCCCCCCCCCCCCCC(=O)OC[C@H]1O[C@@H](n2cc(C)c(=O)[nH]c2=O)C[C@@H]1N=[N+]=[N-] [Compound 10] ?
Result: 17.9 µM

Q: Query for HIV-1 strain IIIB (lymphocytotropic strain): what EC50 does the record show for CCCCCOCCCCCCCC(=O)OC[C@H]1O[C@@H](n2cc(C)c(=O)[nH]c2=O)C[C@@H]1N=[N+]=[N-] [Compound 18] ?
Result: 4.8 µM

----------
Assay: Cytotoxicity assay (MTS)
Format: cell-based
Conditions: human, HeLa cells (ATCC CCL-2.1), Table 2; MTS; 50% effective concentration
Parameter measured: EC50

Please review the following examples before continuing.
Compound: CCCCCCCCCCCCCCOCC1OC(n2cc(C)c(=O)[nH]c2=O)CC1N=[N+]=[N-] (stereo not drawn)
Val: 205 µM
//
Compound: CCCCCCCCCCOCCC(=O)OC[C@H]1O[C@@H](n2cc(C)c(=O)[nH]c2=O)C[C@@H]1N=[N+]=[N-]
Val: > 209 µM
//
Compound: Cc1cn([C@H]2C[C@H](F)[C@@H](COC(=O)CCCCCCCCCCCN=[N+]=[N-])O2)c(=O)[nH]c1=O
Val: 1600 µM
//
Compound: CCCCCCCCCCCCCCOCC1OC(n2cc(C)c(=O)[nH]c2=O)CC1F (stereo not drawn)
Val: 179 µM
//
Compound: Cc1cn([C@H]2C[C@H](N=[N+]=[N-])[C@@H](CO)O2)c(=O)[nH]c1=O [AZT, 3′-azido-2′,3′-dideoxythymidine, reference compound]
Val: > 375 µM

Q: Dear colleague, I am looking for the recorded EC50 of the following compound: "CCCCCOCCCCCCCC(=O)OC[C@H]1O[C@@H](n2cc(C)c(=O)[nH]c2=O)C[C@@H]1N=[N+]=[N-]"
Result: > 209 µM

Q: What does the data say about its EC50? Entry: "Cc1cn([C@H]2C[C@H](N=[N+]=[N-])[C@@H](COC(=O)CCCCCCCCCCCBr)O2)c(=O)[nH]c1=O"
Result: > 190 µM

Q: Recorded EC50 of CCCCCCCCCCCCC(OC)C(=O)OC[C@H]1O[C@@H](n2cc(C)c(=O)[nH]c2=O)C[C@@H]1N=[N+]=[N-] (mixture of isomers) , please.
Result: > 197 µM

Q: For the compound "Cc1cn([C@H]2C[C@H](F)[C@@H](COC(=O)CCCCCCCCCCCBr)O2)c(=O)[nH]c1=O" , what EC50 is on record?
Result: > 198 µM

Q: Field request: EC50 | item: "CCCCCCCCCCCCCC(=O)OC[C@H]1O[C@@H](n2cc(C)c(=O)[nH]c2=O)C[C@@H]1N=[N+]=[N-]"
Result: > 629 µM

Q: Request the reported EC50 associated with CCCCCCCCCCCCC(OC)C(=O)OC[C@H]1O[C@@H](n2cc(C)c(=O)[nH]c2=O)C[C@@H]1F (mixture of isomers)
Result: > 206 µM

Q: Need EC50, item "Cc1cn([C@H]2C[C@H](F)[C@@H](CO)O2)c(=O)[nH]c1=O"
Result: > 410 µM

----------
Below is a list of entries, each paired with its recorded EC50 value.
System: HIV-1 strain IIIB (lymphocytotropic strain)
Assay: Single-round infection assay, cell-free X4 virus (lymphocytotropic strain)
Type: cell-based
Details: read-out: (X4) EC50, Table 2, single-round infection assay
Field format: number, assumed nM, no unit text.

Sample smiles: CCSCCCCCCCCCCCC(=O)OC[C@H]1O[C@@H](n2cc(C)c(=O)[nH]c2=O)C[C@@H]1F
Tested on: HIV-1 strain IIIB (lymphocytotropic strain)
Display unit: nM
Val: 1000

Next compound, please.
Q: Fill blank: measured EC50 of the compound "Cc1cn([C@H]2C[C@H](F)[C@@H](COC(=O)CCCCCCCCCCCN=[N+]=[N-])O2)c(=O)[nH]c1=O" is ____.
Result: 900

----------
Experiment: pKa by dip-probe absorption spectroscopy (D-PAS)
Assay type: physicochemical
Conditions: methanol-water co-solvent, Yasuda-Shedlovsky extrapolation
Parameter measured: pKa
Output spec: single numeric token, no unit.

Q: Which pKa value is on record for "Cc1cn([C@H]2C[C@H](F)[C@@H](COC(=O)CCCCCCCCCCCN=[N+]=[N-])O2)c(=O)[nH]c1=O" ?
Result: 9.67

----------
Test: Cytotoxicity assay (MTS)
Type: cell-based
Settings: human, HeLa cells (ATCC CCL-2.1), Table 3; conjugates vs physical mixtures
Recorded EC50, one value per entry.

Illustrative cases are given below, each with its answer.
Molecule: Cc1cn([C@H]2C[C@H](N=[N+]=[N-])[C@@H](CO)O2)c(=O)[nH]c1=O [AZT, 3′-azido-2′,3′-dideoxythymidine, reference compound]
EC50: > 374 µM
//
Molecule: Cc1cn([C@H]2C[C@H](F)[C@@H](CO)O2)c(=O)[nH]c1=O
EC50: > 410 µM
//
Molecule: CCCCCCCCCCCCCC(=O)OC[C@H]1O[C@@H](n2cc(C)c(=O)[nH]c2=O)C[C@@H]1N=[N+]=[N-]
EC50: > 629 µM
//
Molecule: CCCCCCCCCCCCCC(=O)OC[C@H]1O[C@@H](n2cc(C)c(=O)[nH]c2=O)C[C@@H]1F
EC50: 606 µM

Now consider the entry below.
Q: Value lookup for EC50; key = "Cc1cn([C@H]2C[C@H](N=[N+]=[N-])[C@@H](COC(=O)CCCCCCCCCCCBr)O2)c(=O)[nH]c1=O"
Result: > 190 µM
